// pEC50 lookup, one value per entry
TESTED_SYSTEM: human liver GK (Homo sapiens)
Construct: GST (glutathione S-transferase) (N)
ASSAY_COMMENT: GK activation test
SETTINGS: test compound concentration needed to activate 50% of maximum activation ability; 4 mM 14C-labeled glucose, 2 mM ATP, room temperature, 20 minutes
pEC50: −log10 of the molar value.

Cc1ccc(/C(=C/C2(CO)CC2)c2ccc(S(=O)(=O)C3CC3)cc2)[nH]c1=O | 5.00 to 5.52
CCCOc1ccc(C(C[C@H]2CCC(=O)N2)c2ccc(C3CC3)c(=O)[nH]2)cc1 (single isomer, unassigned) | 5.52 to 6.30
CCCc1ccc(C(C[C@H]2CCC(=O)N2)c2ccc(C(F)(F)F)cc2)[nH]c1=O (single isomer, unassigned) [Example 4-242] | 5.52 to 6.30

For the compound "CSc1ccc(/C(=C\[C@H]2CCC(=O)C2)c2ccc(C3CC3)c(=O)[nH]2)cc1" , the measured pEC50 on human liver GK (Homo sapiens) was 6.30 to 8.00

For the compound "O=c1[nH]c(/C(=C/C2CCCC2)c2ccc(S(=O)(=O)C3CC3)cc2)ccc1Cl" , the measured pEC50 on human liver GK (Homo sapiens) was 6.30 to 8.00

For the compound "CC(C)(C)c1ccc(/C(=C\[C@H]2CCC(=O)N2)c2ccc(-c3cnoc3)c(=O)[nH]2)cc1" , the measured pEC50 on human liver GK (Homo sapiens) was 6.30 to 8.00

For the compound "CC(C)(C)c1ccc(/C(=C\[C@H]2CCC(=O)N2)c2ccc(C#N)c(=O)[nH]2)cc1" , the measured pEC50 on human liver GK (Homo sapiens) was 5.52 to 6.30

For the compound "O=C1CC[C@H](/C=C(\c2ccc(C(F)(F)F)c(Cl)c2)c2ccc(C3CC3)c(=O)[nH]2)N1" , the measured pEC50 on human liver GK (Homo sapiens) was 6.30 to 8.00

For the compound O=c1[nH]c(C(OC2CCCC2)c2ccc(S(=O)(=O)C3CC3)cc2)ccc1C(F)(F)F (stereo not shown) , the measured pEC50 on human liver GK (Homo sapiens) was 5.00 to 5.52

* * *

// EC50 lookup, one value per entry
TESTED_SYSTEM: human liver GK (Homo sapiens, UniProt P35557)
Construct: GST (glutathione S-transferase) (N)
Sequence (P35557 1-466 isoform P35557-2): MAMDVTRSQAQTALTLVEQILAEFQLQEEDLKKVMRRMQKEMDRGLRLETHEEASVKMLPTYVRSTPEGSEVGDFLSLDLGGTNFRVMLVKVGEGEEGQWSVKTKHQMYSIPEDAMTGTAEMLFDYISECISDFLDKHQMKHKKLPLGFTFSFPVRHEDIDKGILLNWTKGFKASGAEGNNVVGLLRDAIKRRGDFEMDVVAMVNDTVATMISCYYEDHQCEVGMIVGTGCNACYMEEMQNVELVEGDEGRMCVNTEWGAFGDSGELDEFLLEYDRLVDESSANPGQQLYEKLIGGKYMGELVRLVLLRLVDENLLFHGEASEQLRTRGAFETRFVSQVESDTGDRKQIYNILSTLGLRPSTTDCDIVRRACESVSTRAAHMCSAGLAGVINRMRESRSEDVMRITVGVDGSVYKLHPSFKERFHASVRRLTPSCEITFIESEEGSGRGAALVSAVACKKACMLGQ
ASSAY_COMMENT: GK activation test
SETTINGS: test compound concentration needed to activate 50% of maximum activation ability; 4 mM 14C-labeled glucose, 2 mM ATP, room temperature, 20 minutes

For the compound "O=C1CCCN1C/C=C(\c1ccc(S(=O)(=O)C2CC2)cc1)c1ccc(Cl)c(=O)[nH]1" , the measured EC50 on human liver GK (Homo sapiens, UniProt P35557) was 0.5 to 3 µM

For the compound "O=C1CC[C@H](/C=C(\c2ccc(Oc3ccccc3)cc2)c2ccc(Cl)c(=O)[nH]2)N1" , the measured EC50 on human liver GK (Homo sapiens, UniProt P35557) was 0.01 to 0.5 µM

For the compound O=C1CC[C@H](CC(c2ccc(OC3CC3)c(Cl)c2)c2ccc(C3CC3)c(=O)[nH]2)N1 (single isomer, unassigned) [Example 4-344] , the measured EC50 on human liver GK (Homo sapiens, UniProt P35557) was 0.01 to 0.5 µM

For the compound "CCOc1ccc(/C(=C\[C@H]2CCC(=O)N2)c2ccc(Cl)c(=O)[nH]2)cc1Cl" , the measured EC50 on human liver GK (Homo sapiens, UniProt P35557) was 0.5 to 3 µM

For the compound CCCc1ccc(C(C[C@H]2CCC(=O)N2)c2ccc(Cl)c(=O)[nH]2)cc1 (single isomer, unassigned) , the measured EC50 on human liver GK (Homo sapiens, UniProt P35557) was 0.5 to 3 µM

For the compound "CC(C)(C)c1ccc(/C(=C\Cn2cccnc2=O)c2ccc(Cl)c(=O)[nH]2)cc1" , the measured EC50 on human liver GK (Homo sapiens, UniProt P35557) was 3 to 10 µM

For the compound "CSc1ccc(/C(=C\CCCO)c2ccc(C3CC3)c(=O)[nH]2)cc1" , the measured EC50 on human liver GK (Homo sapiens, UniProt P35557) was 0.5 to 3 µM

For the compound "CN(C)C(=O)c1ccc(/C(=C\[C@H]2CCC(=O)N2)c2ccc(Cl)c(=O)[nH]2)cc1" , the measured EC50 on human liver GK (Homo sapiens, UniProt P35557) was 3 to 10 µM

For the compound "CC(=O)c1ccc(/C(=C\C2CCOCC2)c2ccc(Cl)c(=O)[nH]2)cc1" , the measured EC50 on human liver GK (Homo sapiens, UniProt P35557) was 3 to 10 µM

For the compound "CN(C)c1ccc(/C(=C/[C@H]2CCC(=O)N2)c2ccc(C(C)(C)C)cc2)[nH]c1=O" , the measured EC50 on human liver GK (Homo sapiens, UniProt P35557) was 0.01 to 0.5 µM

For the compound "CS(=O)(=O)c1ccc(/C(=C\C2CCCC2)c2ccc(C3CC3)c(=O)[nH]2)cc1" , the measured EC50 on human liver GK (Homo sapiens, UniProt P35557) was 0.01 to 0.5 µM

For the compound "Cc1ccc(/C(=C/[C@H]2CCC(=O)C2)c2ccc(SC3CC3)cc2)[nH]c1=O" , the measured EC50 on human liver GK (Homo sapiens, UniProt P35557) was 0.01 to 0.5 µM

For the compound "CC(C)(C)c1ccc(/C(=C\CN2CCOC2=O)c2ccc(Cl)c(=O)[nH]2)cc1" , the measured EC50 on human liver GK (Homo sapiens, UniProt P35557) was 0.01 to 0.5 µM

* * *

TESTED_SYSTEM: human liver GK (Homo sapiens)
Construct: GST (glutathione S-transferase) (N)
Sequence (P35557 1-466 isoform P35557-2): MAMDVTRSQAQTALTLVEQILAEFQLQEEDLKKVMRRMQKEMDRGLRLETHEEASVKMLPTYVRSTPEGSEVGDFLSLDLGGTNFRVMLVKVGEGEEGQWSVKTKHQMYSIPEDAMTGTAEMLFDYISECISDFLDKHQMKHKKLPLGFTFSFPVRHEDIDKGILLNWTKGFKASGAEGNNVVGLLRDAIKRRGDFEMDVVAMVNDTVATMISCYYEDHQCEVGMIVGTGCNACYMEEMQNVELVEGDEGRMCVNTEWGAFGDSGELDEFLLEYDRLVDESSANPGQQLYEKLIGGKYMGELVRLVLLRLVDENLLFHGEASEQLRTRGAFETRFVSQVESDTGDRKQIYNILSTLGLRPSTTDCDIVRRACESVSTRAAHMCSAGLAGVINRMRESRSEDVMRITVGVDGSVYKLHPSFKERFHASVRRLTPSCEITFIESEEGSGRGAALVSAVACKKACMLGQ
ASSAY_COMMENT: GK activation test
SETTINGS: test compound concentration needed to activate 50% of maximum activation ability; 4 mM 14C-labeled glucose, 2 mM ATP, room temperature, 20 minutes
// EC50 lookup, one value per entry

O=C1CC[C@H](CC(c2ccc(S(=O)(=O)C3CC3)c(Cl)c2)c2ccc(Cl)c(=O)[nH]2)N1 (single isomer, unassigned) [Example 4-304] | 0.01 to 0.5 µM
Cc1ccc(/C(=C/C2CCCC2)c2ccc(S(=O)(=O)C3CC3)cc2)[nH]c1=O | 0.01 to 0.5 µM
CSc1ccc(/C(=C\C2CCCC2)c2ccc(C(C)C)c(=O)[nH]2)cc1 | 0.01 to 0.5 µM
O=C1CC[C@H](/C=C(\c2ccc(C(F)(F)F)cc2)c2ccc(OC3CCCC3)c(=O)[nH]2)N1 | 0.5 to 3 µM
O=C1CC[C@H](/C=C(\c2ccc(SC3CC3)cc2)c2ccc(Cl)c(=O)[nH]2)N1 | 0.01 to 0.5 µM
CSc1ccc([C@]2(c3ccc(C)c(=O)[nH]3)C[C@@H]2C2CCCC2)cc1Cl (relative stereo) | 0.5 to 3 µM
CCc1ccc(C(CC2CCCC2)c2ccc(S(=O)(=O)CCCO)cc2)[nH]c1=O (stereo not drawn) | 0.5 to 3 µM
O=C1CC[C@H](/C=C(\c2ccc(C(F)F)c(F)c2)c2ccc(C3CC3)c(=O)[nH]2)N1 | 0.01 to 0.5 µM
CCc1ccc(/C(=C/C2CCCC2)c2ccc(OC)c(Cl)c2)[nH]c1=O | 0.01 to 0.5 µM
Cc1ccc(C(CC2CCOCC2)c2ccc(S(C)(=O)=O)cc2)[nH]c1=O (stereo not drawn) | 3 to 10 µM

For the molecule "O=C1CC[C@H](/C=C(\c2ccc(Cl)c(Cl)c2)c2ccc(C3CC3)c(=O)[nH]2)N1" , the measured EC50 on human liver GK (Homo sapiens) was 0.01 to 0.5 µM
